System: RXF 393
Assay: NCI tumour cell line growth inhibition, 48 h
The source made the active and inactive calls. No stated cut-off is given here; in the data, active = GI50 up to about 1.1 µM and inactive = higher. Non-standard residues stand in square brackets, D forms with d. Residues, ends and D or L forms follow the SMILES beside them. ξ: configuration not given here. *: point of attachment. Cbz = O=C(OCc1ccccc1)*; ξK = NCCCCC(N)C(=O)O
GI50 overview

Reference set, count: 8
CNc1cc(Cl)ccc1C(=O)N1CCC[C@H]1CO :: > 100 µM (inactive)
Cc1ccc(C(=O)/C=C(\O)C(=O)NC23CC4CC(CC(C4)C2)C3)cc1 :: > 10 µM (inactive)
O=C(/C=C/c1ccccc1O)CC(=O)/C=C/c1ccccc1O :: 3.25 µM (inactive)
CC1(C)c2ccccc2N2C(c3ccccc3)=NOC21C (configuration not stated) :: > 100 µM (inactive)
O=C(O)[C@@H](NS(=O)(=O)c1ccc(F)cc1)c1ccccc1 :: > 100 µM (inactive)
Cc1cc(C)nc(NS(=O)(=O)c2ccc(NC(=O)NC(F)(F)F)cc2)n1 :: > 100 µM (inactive)
CC(C)OC(=O)[C@H]1ON2O[C@H](O[C@@H]3CCCC[C@H]3c3ccccc3)C([Si](C)(C)c3ccccc3)[C@H]3OC(=O)[C@@H]1C32 (some centres not stated) :: > 100 µM (inactive)
Cc1cccc(C(=O)c2cccc3ccccc23)c1C(=O)O :: > 100 µM (inactive)

Asked: // query GI50 value for entry NCCCCC(NC(=O)OCc1ccccc1)C(=O)NCC(N)=O (configuration not stated) (Cbz-[ξK]-Gly-NH2)
Given back: > 100 µM (inactive)

Asked: Ok, now COc1ccc(CC(O)CN2CCOCC2)cc1 (configuration not stated)
Given back: > 100 µM (inactive)

Asked: Ok, now "CC(C)=CCC1=C(OCC(=O)O)C(=O)c2ccccc2C1=O"
Given back: 31.9 µM (inactive)

Asked: Ok, now "N#Cc1c(-c2ccccc2)nc(-c2ccccc2)sc1=S"
Given back: > 100 µM (inactive)

Asked: Ok, now C=Cc1ccccc1C1C(C(=O)OCC)=C(C)N=C2OC(C(=O)OC)C(=O)N21 (configuration not stated)
Given back: > 100 µM (inactive)

Asked: Ok, now "O=Nc1c(-c2c(O)[nH]c3ccc(I)cc23)[nH]c2ccccc12"
Given back: 2.36 µM (inactive)

Asked: Ok, now "CNC(=O)CCNC(=O)CCC(=O)N(C)C"
Given back: > 100 µM (inactive)

Asked: Ok, now "COc1ccc2ccccc2c1CN1CCOCCOCCN(Cc2c(OC)ccc3ccccc23)CCOCCOCC1"
Given back: > 100 µM (inactive)

Asked: Ok, now "COc1ccc(NCc2cnc3nc(N)nc(N)c3c2C)cc1"
Given back: 43.5 µM (inactive)

Asked: Ok, now "C/C(CCn1[nH]c(=O)ccc1=O)=N\NC(=O)C(=O)NN"
Given back: > 100 µM (inactive)

Asked: Ok, now "Nc1cc2c3c(cccc3c1)NC2=O"
Given back: > 100 µM (inactive)

Asked: Ok, now "Cc1ccccc1/N=N/c1ccc(N/N=C2/CCCNC2=O)c(C)c1"
Given back: > 100 µM (inactive)

Asked: Ok, now "Cc1cc2c(cc1C)[n+]([O-])c(C(=O)/C=C/c1ccc3c(c1)OCO3)c(C)[n+]2[O-]"
Given back: 28.7 µM (inactive)

Asked: Ok, now CCC(NC(C)c1ccccc1)C(O)c1ccc(OCc2ccccc2)c(OCc2ccccc2)c1 (configuration not stated)
Given back: 8.65 µM (inactive)

The reported measurements were obtained from ChEMBL document CHEMBL1201862.
